test_summary: yeast display, Sf9 membrane polyspecificity reagent, FACS + sequencing; frameworks hold sequencing errors

chain: QVQLVESGGGLVQAGGSLRLSCAASGFTFRGYTIGWYRQAPGKERELVAAITWSGGSTYYADSVKGRFTISRDNAKNTVYLQMNSLKPEDTAVYYCASYAWYGYVYHHLYDYWGQGTQVTVSS
polyreactivity (PSR sort gate): high polyreactivity
--
chain: QVQLQESGGGLVLAGGSLRLSCAASGSIFLFYTMGWYRQAPVKEREFVAGITLRTPTYNADSVKGRFTISRDNVKNTVYLQMNSLKPEDTAVYYCAVAVGHYTEIWYWGQGTQVTMSS
polyreactivity (PSR sort gate): high polyreactivity
--
chain: QVQLEESGGGLVQAGGSLRLSCAASGRTFVWYAMGWYRQAPGKERELVAAISRSGGSTYYADSVKGRFTISRDNAKNTVYLQMNSLKPEDTAVYYCAAEFYIAPPYDYWGQGTQVTVSS
polyreactivity (PSR sort gate): high polyreactivity

====

test_summary: yeast display, Sf9 membrane polyspecificity reagent, FACS + sequencing; frameworks hold sequencing errors
parameter: polyreactivity (PSR sort gate)

chain: QVQLVESGGGLVQAGGSLRLSCAASGRIFDLNAMGWYRQAPGKETELVAAISYSGGRTFYADSVKGRFTISRDNAKNTVYLQMNSLKPEDTAVYYCNARYGKPAYQYGMDYWGQGTQVTVSS
measured: low polyreactivity

chain: QVQLVESGGGLVQAGGSLRLSCAASGIIFSIYAMGWSRQAPGKERELVAAISGRGGRTYYADSVKGRFTMSRDNAKNTVYLQMNSLKPEDTAVYFCAAGAHAYAHYSWFYFRMHYWGQGTQVTVSS
measured: low polyreactivity

chain: QVQLVESGGGLVQAGGSLRLSCAASGSTFGYYAMGWYRQAPGNEREFVAAITYGDGNTYYADSVKGRFTISRDNAKNTVYLQMNRLKPEDTAVYYCAKYYWAPTGAHGGYGYWGQGTQVTVSS
measured: low polyreactivity

chain: QVQLVESGGGLVQAGDSLRLSCAASGFIFYYYTMGWYRQAPGKEREFVAAITYSGGRTYYADSVKGRFTISRDNAKNTVYLQMNSLKPQDTAVYYCADVPRYGPSSRMDYWGQGTQVTVSS
measured: high polyreactivity

chain: QVQLVESGGGLVQAGGSLRLSCAASGFIFGYNAMGWYRQAPGKERELVAAIRAGDGSTYYADSVKGRFTISRDNAKNTVYLQMNSLKPEDTAVYYCAAAWRQSGYRYGYWGQGTQVTVSS
measured: high polyreactivity

Item under review: `QVHLVESGGGLVQAGGSLRISCAASGLIFPDYTMGWYRPAPGKESELVAVITDGDSTYYADSVKGRFTISRDNAKNTVYLQMNSLKPEDTAVYYCASELDGSKYTLDYWGQGTQVTVSS` . Reported polyreactivity (PSR sort gate)?
low polyreactivity

Item under review: `QVQLVESGGGLVQAGGSLRLICAASGNTLGPYAMGWYRQAPGKERELVAAITWSGGITDYADSVKGRFTISRDNAKNTVYLQMNSLKPEDTAVYYCNAGPSLGIFQGTSVGLRYDYWGQGTQVTVSS` . Reported polyreactivity (PSR sort gate)?
low polyreactivity

Item under review: `QVQLVESGGGLVQAGGSLRLSCAASGSIFRFYAMGWYRQAPGKERELVADISWRGGSTYYADSVKGRFTISRDNAKNTVYLQMNSLKPEDTAVSYCAAGYYRASTTVTHGGIEGDSWGQGTQVTVSS` . Reported polyreactivity (PSR sort gate)?
high polyreactivity

Item under review: `QVQLVESGGGLVQAGGSLRLSCAASGITFYYYAMGWYRQAPGKERELVAAITVNGGTTYYADSVKGRFTISRDNAKNTVYLQMNSLKPEDTAVYYCNADGTFEYDYWGQGTQVTVSS` . Reported polyreactivity (PSR sort gate)?
low polyreactivity

Item under review: `QVQLVESGGGLVQAGGSLRLSCAASGRILFGYAMGWYRQAPGKERELVADITSTGSTNYADSVKGRFTISRDNAKNTVYLQMNSLNPEDTAVYYCNARRESYYQRYRVDYWGQGTQVTVSS` . Reported polyreactivity (PSR sort gate)?
low polyreactivity

Item under review: `QVQLVESGGGLVQAGGSLRLICEASGFIFDDNAIGSYRQAPGKERELVAAITSGGGSTYYADSVKGRCTISRDYAKNTVYLHMNSLKPEDTAVYYCNAVPSQHDEFDYWGQGTQVTVSS` . Reported polyreactivity (PSR sort gate)?
low polyreactivity

====

test_summary: yeast display, Sf9 membrane polyspecificity reagent, FACS + sequencing; frameworks hold sequencing errors
parameter: polyreactivity (PSR sort gate)

Solved cases (4 shown):
chain: QVQRQESGGGLVQAGDSQRLSCAPSGNIFRFTDMGWYRQAPGQERELVAAINAGSTTYYADSVKGRFTISRDNAKNTVYLQMNSLKPEDTAVYYCAVYYLGSGTFGYWGQGAQVTVSS
polyreactivity (PSR sort gate): high polyreactivity
//
chain: QVQLVESGGGLVQAGGSLRLSGAASGRIFYYNTMGWYRQAPGKEWEVVAAISSTAYTTYADSVKGRFTISRDNAKNTVYLQMYSLKPEDTAVYYCAAYRYSRYRQRYNYWGQGTQVTVSS
polyreactivity (PSR sort gate): high polyreactivity
//
chain: QVQLVESGGGLVQAGGSLRLSCDASGRIFAYYARGWYRQAPGKERELVAAITTNGGGTYYADSVKGRFTISRDNAKNTVYLQMNSLKPEDTGVYYCNAVKQRSSIFDYWGQGTQVTVSS
polyreactivity (PSR sort gate): low polyreactivity
//
chain: QVQLVESGGGLVQAGGSLRLSCAASGSIFTSYGMGWYRQAPGKERELVAAITYSGDRTYYADSVKGRFTISRDNAKITVYLQMNSLNPEDTAVYYCNVAYVYGSFRRRPMGYWGQGTQVTVSS
polyreactivity (PSR sort gate): high polyreactivity

Item under review: `QVQLVESGGGLVQAGGSLRLSCAASGRIFTPNAMGWYRQPPGKERELVAAITWSGDNTYADSVKGRFTISRDNAKNTVYLQMNILKPEDTAVYYCAAAYGYGHKKYGYWGQGTQVTVSS` . Reported polyreactivity (PSR sort gate)?
low polyreactivity

Item under review: `QVQIVESGGGLVQAGGSLRLSCAASGRIFGYNTMGWYRQAPGKERELVASISYYGGGPYYADSVKGRFTISRDLAKYTFYLQMNSLKPEDTAVYYCNALSYGYDDAYGYWGQGTQVTVSS` . Reported polyreactivity (PSR sort gate)?
low polyreactivity

Item under review: `QVQLVESGGGLVQAGGSLRLSCASSGPIIFAYAMGWYRQAQGKEREFVAAISDNDGSTYYADSVKGRFTISRDNAKNSVYLQMNSLKPEDTAVYYCNADLGYVYDYWGQGTQVTVSS` . Reported polyreactivity (PSR sort gate)?
low polyreactivity

====

test_summary: yeast display, Sf9 membrane polyspecificity reagent, FACS + sequencing; frameworks hold sequencing errors
parameter: polyreactivity (PSR sort gate)

Solved cases (5 shown):
chain: QVQLVESGGGLVQAGGSLRLSCAASGSIFDRNAMGWYRQAPGKERELVAAISRSSGNTYYADSVKGRFTISRDNAKNTVYLQMNSLKPEDTAVYYCAAKPTYPKRYNYWGQGTQVTVSS
polyreactivity (PSR sort gate): high polyreactivity
--
chain: QVQLVESGGGLVQAGGSLRLSCAATGSIFYGNAMGWYRQAPGKERELVAAISWGAGSTYYADSVKGRFTISRDNAKNTVYLQMNSLKPEDTAVYYCNTLQITGWYDYWGQGTQVTVSS
polyreactivity (PSR sort gate): high polyreactivity
--
chain: QVQLVESGGGLVQAGGSLRLSCAASGVIFVWYAMGWYRQAPGKERELVAAISSGGSTYYADSVKGRFTISRDNAKNTVYLQMNSLKPEDTAVYYCAADLWYYAYSYDYWGQGTQVTVSS
polyreactivity (PSR sort gate): high polyreactivity
--
chain: QVQLVESGGGLVQAGGSLRLSCAASGSTFRFYTMGWYRPAPGKERELVATISRGGSTYADSVKGRFTISRDNAKNTVYLQMYSLKPEDTAVYYCAKRGYSSWPYDYWGQGTQVSVSS
polyreactivity (PSR sort gate): low polyreactivity
--
chain: QVQLVESGGGLVQAGGSLRLSCAASGFTFRYYAMGWYRQAPGKERELVAAITSGGGSTYYADSVKGRFTISRDNAKNTVYLQMNSLKPEDTAVYYCATKRARYSYDYWGQGTQVTVSS
polyreactivity (PSR sort gate): high polyreactivity

Item under review: `QVQLVESGGGLVQAGGSLRLSCASSGFTYGTNAMVWYRQAPGKERELVAAISSRGGSTYYADSVKGRFTISRDNAKNTVYLLMNSLKPEDTAVYYCARRVARRQHEYGYWGQGTQVTVSS` . Reported polyreactivity (PSR sort gate)?
high polyreactivity

Item under review: `QVQLVESGGGLVQAGGSLRLSCAASGFIFRYYGMGWYRQAPGKERELVAAITDGGSTTYADSVKGRFTISRDNAKNTVYLQMNSLKPEDTAVYYCNAEAGGFDYYGKTYRYGDYWGQGTQVTVSS` . Reported polyreactivity (PSR sort gate)?
low polyreactivity

Item under review: `QVQLVESGGGLVQAGGSLRLSCAASGITFADYAMGRYRQAPGKERELVAAISSGTSTYYADSVKGRFTISPDNAKNTVYLQMNSLKPEDTAVYYFYARYWGRVPPPAYDPRRYWGQGTQVTVSS` . Reported polyreactivity (PSR sort gate)?
high polyreactivity

Item under review: `QVQLVESVGCLVQAGGSLRLSCAASGFIFDYYAMGRYRHGPGKERELVAGISWSGGSTYYADSVKGRFTISSDNSKNTVYLQMNSLIPEDTAVYYCNAEDSVPFYLYYYWGQGSQVTVSS` . Reported polyreactivity (PSR sort gate)?
low polyreactivity

Item under review: `QVQLVESGGGLVQAGGILSLSCAASGNTFKGNAMGWYRQAPGKERELVAAISWSTDSTYYADSVKGRFTISRDNAKNSVYLQMNSLKPEDTAIYYCAADYSHLPIAWYYYWGQGTQVTVSS` . Reported polyreactivity (PSR sort gate)?
low polyreactivity

Item under review: `QVQLVESGGGLVQAGGSLRLSCAASGFTFYNYAMGWYRQAPGKERELVAAISRSGRTYYADSVKGRFTISRDNAKNTVYLQMNSLKPEDTAVYYCAAGHGGDPGSGYWGQGTQVTVSS` . Reported polyreactivity (PSR sort gate)?
high polyreactivity
